Data origin, for the record: paper PMC7531004

- assay_overview: H+/Na+ transport assay of purified peptides
- measurement_conditions: read-out: H+/Na+ transport activity EC50; EYPC/EYPG (19:1) LUVs
Where a SMILES comes first, the peptide text is derived from it. [ ]: non-standard residue; d: D form. The star is where a group is joined. NHCH2CH2OH = OCCN*; For = O=C*
endpoint_label: EC50 (nM)
Numeric only. Scale: nM

Which EC50 is listed for CC(C)C[C@@H](NC(=O)[C@H](C)NC(=O)CNC(=O)[C@@H](NC=O)C(C)C)C(=O)N[C@@H](C)C(=O)N[C@@H](C(=O)N[C@H](C(=O)N[C@@H](C(=O)N[C@@H](Cc1c[nH]c2ccccc12)C(=O)N[C@@H](C(=O)N[C@@H](Cc1c[nH]c2ccccc12)C(=O)N[C@H](CC(C)C)C(=O)N[C@@H](Cc1c[nH]c2ccccc12)C(=O)N[C@@H](C(=O)N[C@@H](Cc1c[nH]c2ccccc12)C(=O)NCCO)C(C)C)C(C)C)C(C)C)C(C)C)C(C)C [B04] (For-VGA[dL]A[dV]V[dV]W[dV]W[dL]W[dV]W-NHCH2CH2OH) ?
3.7
